Record form. Attribute: inhibition at 1 µM. Fill in for each entry.
- System: K562
- assay-notes: Antiproliferative activity against human K562 cells at 1 uM after 72 hrs by MTS assay
- Format: functional
- conditions: K562, 72 h
Answer with the value and then the unit.

inhibition at 1 µM for K562 with input CC(=O)OC[C@H]1O[C@@H](N2C(=O)/C(=C3/C(=O)Nc4ncc(I)cc43)c3ccccc32)[C@H](OC(C)=O)[C@@H](OC(C)=O)[C@@H]1OC(C)=O equals 0%

inhibition at 1 µM for K562 with input CC(=O)OC[C@H]1O[C@@H](N2C(=O)/C(=C3/C(=O)Nc4ccc(I)cc43)c3cc(Br)ccc32)[C@H](OC(C)=O)[C@@H](OC(C)=O)[C@@H]1OC(C)=O equals 0%

inhibition at 1 µM for K562 with input CC(=O)OC[C@H]1O[C@@H](N2C(=O)/C(=C3/C(=O)Nc4ncc(C#CCNC(=O)OCc5ccccc5)cc43)c3ccccc32)[C@H](OC(C)=O)[C@@H](OC(C)=O)[C@@H]1OC(C)=O equals 4%

inhibition at 1 µM for K562 with input CC(=O)OC[C@H]1O[C@@H](N2C(=O)/C(=C3/C(=O)Nc4ncc(I)cc43)c3cc(Br)ccc32)[C@H](OC(C)=O)[C@@H](OC(C)=O)[C@@H]1OC(C)=O equals 0%

inhibition at 1 µM for K562 with input CC(=O)OC[C@H]1O[C@@H](N2C(=O)/C(=C3/C(=O)Nc4ncc(C#CCNC(=O)OCc5ccccc5)cc43)c3cc(Br)ccc32)[C@H](OC(C)=O)[C@@H](OC(C)=O)[C@@H]1OC(C)=O equals 0%

inhibition at 1 µM for K562 with input CC(=O)OC[C@H]1O[C@@H](N2C(=O)/C(=C3/C(=O)Nc4ccc(C#CCCO)cc43)c3ccccc32)[C@H](OC(C)=O)[C@@H](OC(C)=O)[C@@H]1OC(C)=O equals 2%

inhibition at 1 µM for K562 with input CC(=O)OC[C@H]1O[C@@H](N2C(=O)/C(=C3/C(=O)Nc4ccc(C#CCNC(=O)OCc5ccccc5)cc43)c3cc(Br)ccc32)[C@H](OC(C)=O)[C@@H](OC(C)=O)[C@@H]1OC(C)=O equals 1%

inhibition at 1 µM for K562 with input CC(=O)OC[C@H]1O[C@@H](N2C(=O)/C(=C3/C(=O)Nc4ncc(Br)cc43)c3cc(Br)ccc32)[C@H](OC(C)=O)[C@@H](OC(C)=O)[C@@H]1OC(C)=O equals 3%

inhibition at 1 µM for K562 with input CC(=O)OC[C@H]1O[C@@H](N2C(=O)/C(=C3/C(=O)Nc4ccc(C#CCNC(=O)OCc5ccccc5)cc43)c3ccccc32)[C@H](OC(C)=O)[C@@H](OC(C)=O)[C@@H]1OC(C)=O equals 0%

inhibition at 1 µM for K562 with input CC(=O)OC[C@H]1O[C@@H](N2C(=O)/C(=C3/C(=O)Nc4ncc(C#CCCO)cc43)c3ccccc32)[C@H](OC(C)=O)[C@@H](OC(C)=O)[C@@H]1OC(C)=O equals 5%
